Test system: HeLa Kyoto;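 note: HeLa Kyoto cells synchronized by double thymidine or nocodazole block, proteins quantified by TMT10plex mass spectrometry, three independent biological replicates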
Assay: melting temperature (median over replicates), in situ; higher = more thermally stable
Conditions: cell cycle stage: mitosis
Property: melting temperature; scope: individual sequences
Write it as a number; the unit °C goes unstated.

Solved entries:
MHSEAEESKEVATDVFNSKNLAVQAQKKILGKMVSKSIATTLIDDTSSEVLDELYRVTREYTQNKKEAEKIIKNLIKTVIKLAILYRNNQFNQDELALMEKFKKKVHQLAMTVVSFHQVDYTFDRNVLSRLLNECREMLHQIIQRHLTAKSHGRVNNVFDHFSDCEFLAALYNPFGNFKPHLQKLCDGINKMLDEENI [TNFAIP8]: 51.7
MALAARLLPQFLHSRSLPCGAVRLRTPAVAEVRLPSATLCYFCRCRLGLGAALFPRSARALAASALPAQGSRWPVLSSPGLPAAFASFPACPQRSYSTEEKPQQHQKTKMIVLGFSNPINWVRTRIKAFLIWAYFDKEFSITEFSEGAKQAFAHVSKLLSQCKFDLLEELVAKEVLHALKEKVTSLPDNHKNALAANIDEIVFTSTGDISIYYDEKGRKFVNILMCFWYLTSANIPSETLRGASVFQVKLGNQNVETKQLLSASYEFQREFTQGVKPDWTIARIEHSKLLE [C2ORF47]: 53.3
MQDTGSVVPLHWFGFGYAALVASGGIIGYVKAGSVPSLAAGLLFGSLAGLGAYQLSQDPRNVWVFLATSGTLAGIMGMRFYHSGKFMPAGLIAGASLLMVAKVGVSMFNRPH [TMEM14C]: 54.3
MACLSPSQLQKFQQDGFLVLEGFLSAEECVAMQQRIGEIVAEMDVPLHCRTEFSTQEEEQLRAQGSTDYFLSSGDKIRFFFEKGVFDEKGNFLVPPEKSINKIGHALHAHDPVFKSITHSFKVQTLARSLGLQMPVVVQSMYIFKQPHFGGEVSPHQDASFLYTEPLGRVLGVWIAVEDATLENGCLWFIPGSHTSGVSRRMVRAPVGSAPGTSFLGSEPARDNSLFVPTPVQRGALVLIHGEVVHKSKQNLSDRSRQAYTFHLMEASGTTWSPENWLQPTAELPFPQLYT [PHYHD1]: 51.2
MGLLRIMMPPKLQLLAVVAFAVAMLFLENQIQKLEESRSKLERAIARHEVREIEQRHTMDGPRQDATLDEEEDMVIIYNRVPKTASTSFTNIAYDLCAKNKYHVLHINTTKNNPVMSLQDQVRFVKNITSWKEMKPGFYHGHVSYLDFAKFGVKKKPIYINVIRDPIERLVSYYYFLRFGDDYRPGLRRRKQGDKKTFDECVAEGGSDCAPEKLWLQIPFFCGHSSECWNVGSRWAMDQAKYNLINEYFLVGVTEELEDFIMLLEAALPRFFRGATELYRTGKKSHLRKTTEKKLPTKQTIAKLQQSDIWKMENEFYEFALEQFQFIRAHAVREKDGDLYILAQNFFYEKIYPKSN [HS2ST1]: 55.5

Exercise: Given the entry MVSVINTVDTSHEDMIHDAQMDYYGTRLATCSSDRSVKIFDVRNGGQILIADLRGHEGPVWQVAWAHPMYGNILASCSYDRKVIIWREENGTWEKSHEHAGHDSSVNSVCWAPHDYGLILACGSSDGAISLLTYTGEGQWEVKKINNAHTIGCNAVSWAPAVVPGSLIDHPSGQKPNYIKRFASGGCDNLIKLWKEEEDGQWKEEQKLEAHSDWVRDVAWAPSIGLPTSTIASCSQDGRVFIWTCDDASSNTWSPKLLHKFNDVVWHVSWSITANILAVSGGDNKVTLWKESVDGQWVCISDVNKGQGSVSASVTEGQQNEQ [SEC13] , what melting temperature was observed with HeLa Kyoto?
Key: 50.4

Data origin, for the record: the supplement of paper PMC5998384
